Please go through the items and note down their inhibition.
Assay: M. tuberculosis H37Rv growth inhibitors, H37Rv strain (AID 1626);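 also: bacteria incubated seven days before Alamar blue readout; 0% = bacteria only wells and 100% = bacteria with antibiotic wells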
Conditions: hits give high values, concentration not given here
About 2,000 (0.91%) of roughly 220,000 compounds were called active. Another 2% or so got no clear call; they are omitted. A selection follows. Potency and affinity values are given separately.
Express it in %; write the number only.

[ask] What does the data say about its inhibition? Entry: CN(C)CCCN(C(=O)c1ccc2c(c1)CCCC2)c1nc2ccc(F)cc2s1
[reply] 62.6

[ask] What does the data say about its inhibition? Entry: O=C(COc1ccccc1)N1c2ccccc2Sc2ccccc21
[reply] -4.38

[ask] What does the data say about its inhibition? Entry: CCCCN=Cc1c(C)[nH]n(-c2ccccc2)c1=S
[reply] -2.18

[ask] What does the data say about its inhibition? Entry: O=c1ccnc(SCc2ccccc2Cl)[nH]1
[reply] 3.49

[ask] What does the data say about its inhibition? Entry: O=C(O)CCc1nc2ccccc2n(CCc2ccccc2)c1=O
[reply] -8.81

[ask] What does the data say about its inhibition? Entry: O=C(Nc1nnc(-c2ccco2)o1)c1ccc(N2C(=O)CCC2=O)cc1
[reply] -1.43

[ask] What does the data say about its inhibition? Entry: Cc1[nH]n(-c2ccccc2)c(=O)c1C=NCCc1ccccc1
[reply] 0.59

[ask] What does the data say about its inhibition? Entry: Cc1cc(=O)oc(C)c1C(=O)Nc1cccc(F)c1
[reply] -6.13

[ask] What does the data say about its inhibition? Entry: CN(C)S(=O)(=O)c1ccc(C(=O)Nc2nnc(-c3ccco3)o2)cc1
[reply] -14.7

[ask] What does the data say about its inhibition? Entry: Cc1ccc2nc(N(CCCN(C)C)C(=O)c3ccc(S(=O)(=O)N(C)C)cc3)sc2c1
[reply] -7.66

[ask] What does the data say about its inhibition? Entry: Cc1cc(N2CCN(Cc3ccccc3)CC2)n2nc(C)c(-c3ccccc3)c2n1
[reply] -3.83

[ask] What does the data say about its inhibition? Entry: CCO[C@H]1OC(C(=O)O)=C[C@@H](C(C)(C)C)[C@@H]1CCCO
[reply] -7.81

[ask] What does the data say about its inhibition? Entry: Cc1[nH]nc2c1C(c1cccs1)C(C#N)=C(N)O2 (stereo not drawn)
[reply] 8.65

[ask] What does the data say about its inhibition? Entry: COc1ccc(-n2nnc3c(=O)n(CC(=O)N4CCC(Cc5ccccc5)CC4)cnc32)cc1
[reply] -2.81

[ask] What does the data say about its inhibition? Entry: O=C(Nc1ccc2nc(SCc3ccc(Cl)cc3)sc2c1)c1ccccc1C(=O)N1CCOCC1
[reply] 4.76

[ask] What does the data say about its inhibition? Entry: Cc1nn2c(N3CCN(C(=O)c4ccco4)CC3)cc(C(C)(C)C)nc2c1-c1ccccc1
[reply] 32.7

[ask] What does the data say about its inhibition? Entry: Cc1ccccc1COc1ccc(/C=C(\C#N)C(N)=O)cc1
[reply] 6.69

[ask] What does the data say about its inhibition? Entry: CC(=O)OC(C)CS(=O)(=O)c1ccccc1 (stereo not drawn)
[reply] -4.77

[ask] What does the data say about its inhibition? Entry: CCS(=O)(=O)CCSc1nc2ccccc2o1
[reply] 3.19

[ask] What does the data say about its inhibition? Entry: Cc1c(Br)c([N+](=O)[O-])nn1CC(=O)c1ccccc1
[reply] 0.16

[ask] What does the data say about its inhibition? Entry: CCCSc1cc(NCCOC(C)=O)c([N+](=O)[O-])c2nonc12
[reply] 2.64

[ask] What does the data say about its inhibition? Entry: O=C(O)c1ccc(CSc2ncn[nH]2)cc1
[reply] -5.36

[ask] What does the data say about its inhibition? Entry: CCOC(=O)C1(Cc2ccccc2)CCN(Cc2ccc(COC)o2)CC1
[reply] 8.15

[ask] What does the data say about its inhibition? Entry: CCOc1ccc(-c2nnc(-c3ccccc3)o2)cc1
[reply] 8.69

[ask] What does the data say about its inhibition? Entry: CC(=O)c1ccc(NC(=O)C2CC(=O)N(Cc3ccccc3)C2)cc1 (stereo not drawn)
[reply] -1.96

[ask] What does the data say about its inhibition? Entry: O=C(Nc1nnc(-c2ccco2)o1)c1ccc(S(=O)(=O)N2CCCC2)cc1
[reply] 41.6

[ask] What does the data say about its inhibition? Entry: O=c1[nH]c(N2CCOCC2)nc2ncn(Cc3ccccc3)c12
[reply] -3.03

[ask] What does the data say about its inhibition? Entry: COc1ccc(/C=N/NC(=O)C(C)Sc2ccccn2)cc1[N+](=O)[O-] (stereo not drawn)
[reply] -3.03

Where do the numbers come from? From PubChem BioAssay AID1626.
